# assayed system: monkey CD19-his protein (monkey)
# procedure text: ELISA, monkey CD19 coated
Measured OD450 at 100.00 nM by item
Only the number, expressed in OD450, is required.

Consider the following illustrative entries.
binder: FMC63.27-mIgG1 (antibody, V domains shown, Humanized FMC63; also called FMC63-L2H7) VH: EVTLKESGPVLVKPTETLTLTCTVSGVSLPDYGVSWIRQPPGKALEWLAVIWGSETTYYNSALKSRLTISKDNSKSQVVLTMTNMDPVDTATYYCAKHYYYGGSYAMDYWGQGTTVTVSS VL: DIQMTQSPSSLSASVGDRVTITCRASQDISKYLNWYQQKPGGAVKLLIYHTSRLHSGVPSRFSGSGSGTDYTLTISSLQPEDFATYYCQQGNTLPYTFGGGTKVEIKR
test result: 0.1
--
binder: FMC63.26-mIgG1 (antibody, V domains shown, Humanized FMC63; also called FMC63-L2H6) VH: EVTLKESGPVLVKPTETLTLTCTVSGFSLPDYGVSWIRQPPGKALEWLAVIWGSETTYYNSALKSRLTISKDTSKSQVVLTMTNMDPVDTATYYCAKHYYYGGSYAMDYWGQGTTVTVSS VL: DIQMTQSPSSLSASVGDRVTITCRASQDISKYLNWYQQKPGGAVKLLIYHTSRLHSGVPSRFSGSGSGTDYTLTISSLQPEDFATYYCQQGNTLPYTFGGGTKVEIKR
test result: 0.1

For the binder shown here, FMC63.25-mIgG1 (antibody, V domains shown, Humanized FMC63; also called FMC63-L2H5) VH: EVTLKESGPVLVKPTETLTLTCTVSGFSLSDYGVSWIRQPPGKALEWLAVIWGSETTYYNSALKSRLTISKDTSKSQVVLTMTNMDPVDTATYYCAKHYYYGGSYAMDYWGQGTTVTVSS VL: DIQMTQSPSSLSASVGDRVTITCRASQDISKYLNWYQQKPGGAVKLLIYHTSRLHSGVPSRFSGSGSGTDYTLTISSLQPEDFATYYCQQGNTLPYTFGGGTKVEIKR , give the reported OD450 at 100.00 nM. 0.12

For the binder shown here, FMC63-mIgG1 (antibody, V domains shown, Parent murine antibody; also called murine antibody FMC63) VH: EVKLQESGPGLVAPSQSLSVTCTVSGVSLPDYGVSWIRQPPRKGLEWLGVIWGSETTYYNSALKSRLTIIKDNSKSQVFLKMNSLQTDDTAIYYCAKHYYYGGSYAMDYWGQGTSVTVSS VL: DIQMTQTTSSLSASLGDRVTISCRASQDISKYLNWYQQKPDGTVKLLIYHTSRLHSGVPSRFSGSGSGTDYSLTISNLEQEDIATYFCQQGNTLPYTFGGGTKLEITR , give the reported OD450 at 100.00 nM. 0.09
